As shown below, each of these binders has a reported fold over parental (CHO WT) value.
target: T1, Full length human TfR on CHO cells (human, UniProt P02786 1-760); test: FACS MFI, supernatant
T1 construct: also called CHO + huTfR; CHO + hTfR
T1 sequence (P02786 whole entry): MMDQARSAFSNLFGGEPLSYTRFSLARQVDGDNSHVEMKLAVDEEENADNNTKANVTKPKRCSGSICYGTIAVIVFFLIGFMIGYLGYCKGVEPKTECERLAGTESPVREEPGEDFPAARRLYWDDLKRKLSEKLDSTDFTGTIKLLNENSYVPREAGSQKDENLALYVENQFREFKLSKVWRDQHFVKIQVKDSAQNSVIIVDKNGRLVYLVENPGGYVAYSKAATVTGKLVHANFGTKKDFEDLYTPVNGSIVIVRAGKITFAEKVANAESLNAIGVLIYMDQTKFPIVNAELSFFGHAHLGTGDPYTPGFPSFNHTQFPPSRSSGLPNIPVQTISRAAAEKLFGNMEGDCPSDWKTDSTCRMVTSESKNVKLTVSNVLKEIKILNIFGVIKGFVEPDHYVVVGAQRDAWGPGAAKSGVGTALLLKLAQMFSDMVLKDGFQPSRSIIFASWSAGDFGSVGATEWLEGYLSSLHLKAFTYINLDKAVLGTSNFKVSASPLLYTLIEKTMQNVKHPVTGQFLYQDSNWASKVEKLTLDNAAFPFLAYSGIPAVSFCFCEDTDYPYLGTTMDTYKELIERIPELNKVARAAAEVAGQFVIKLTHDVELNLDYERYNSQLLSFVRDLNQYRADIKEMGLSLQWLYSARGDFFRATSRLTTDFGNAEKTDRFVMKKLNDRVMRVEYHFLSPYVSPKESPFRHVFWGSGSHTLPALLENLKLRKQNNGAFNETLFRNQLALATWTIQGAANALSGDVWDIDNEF
# output: numeric value plus its unit

BINDER	RECORDED METRIC	OBSERVED VALUE
TfR3 (mouse hybridoma antibody) (antibody, V domains shown, mouse IgG in hybridoma supernatant) VH: QVQLRQSGPELVKPGASVRISCKASGYTFTSFYIHWVKQRPGQGLEWIGWIYPGDVNTHYSDKFKGKATLTADKSSSTAYMQLSSLTSEDSAVYFCAREGYGYFAYWGQGTLVTVSA VL: DIVMTQSPSSLTVTAGEKVTMSCKSSQSLLNSGNQKNYLTWYQQKPGQPPKLLIYWASTRESGVPDRFTGVGSGTDFTLTISSVQAEDLAVYYCQNDYSYPLTFGSGTKLELK	fold over parental (CHO WT)	38 fold
TfR13 (mouse hybridoma antibody) (antibody, V domains shown, mouse IgG in hybridoma supernatant) VH: DVKLVESGGGLVKPGGSLKLSCAASGFTFSSYTMSWVRQTPEKRLEWVATISSGGSYTYFPDSVKGRFTISRDNAKNTLYLQMSSLKSEDTAIYYCTRAHYYAYDYWGQGTTLTVSS VL: DILLTQSPAILSVSPGERVSFSCRASQSIGTSIHWYQQRTNGSPRLLIKYASGSISGIPSRFSGSGSGTDFTLSINSVESEDIADYYCQQSNSWPTSTFGAGTKLELK	fold over parental (CHO WT)	392 fold
TfR2 (mouse hybridoma antibody) (antibody, V domains shown, mouse IgG in hybridoma supernatant) VH: EVQLQQSGPELVKPGASVKISCKASGYTFTDYNMHWVKQSHGKSLEWIGYIYPYNGGTGYNQKFKSKATLTVDNSSSTAYMELRSLTSEDSAVYYCATLYDGYYFDYWGQGTTLTVSS VL: DILLTQSPAILSVSPGERVSFSCRASQSIGTSIHWYQQRTNGSPRLLIKYASESISGIPSRFSGSGSGTDFTLSINNVESEDIADYYCQQSNSWPFTFGSGTKLEIK	fold over parental (CHO WT)	458 fold

Exercise: Which fold over parental (CHO WT) value is on record for TfR31 (mouse hybridoma antibody) (antibody, V domains shown, mouse IgG in hybridoma supernatant) VH: DVQLQESGPGLVKPSQSLSLTCTVTGYSITSDYAWNWIRQFPGNKLEWMGYISYSGRTSYNPSLKSRISFTRDTSKNQFFLQLNSVTTEDTATYYCAGWGYRYLEDYWGQGTSVTVSS VL: QIVLTQSPAIMSASPGEKVTMTCSASSSISSMHWYQLKPGTSPKKWIYDTSKLASGVPARFSGSGSGTSYSLTISSMEAEDAATYYCHQRSSYPWTFGGGTKLEIK ?
Solution: 90 fold

Exercise: Same read-out for TfR24 (mouse hybridoma antibody) (antibody, V domains shown, mouse IgG in hybridoma supernatant) VH: QVQLQQSGPELVKPGTSVKMSCKASGYTFTSYYIHWVKQRPGQGLEWIGWIYPGDDNTHYNENFKGKTTLTADKSSSTAYMLLSSLTSEDSAIYFCARDYYGRFAYWGQGTLVTVSA VL: DIVMTQSPSSLTVTAGERVTMSCKSSQSLLNSGNQKNYLTWFQQKPGQPPKLLIYWASTRESGVPDRFTGSGSGTDFTVTISSVQAEDLAVYYCQNDYGYPLTFGAGTKLELK ?
Solution: 370 fold
